Tested on: mouse NFS-60 cells
Test: Mitogenicity of G-CSF variants for mouse NFS-60 cells (Example 6.3)
Format: cell-based
Conditions: Conc. 250 pg/ml (G-CSF content), 3 days
measure: Proliferation of mouse NFS-60 cells, induced by G-CSF variants
One number for each entry.

Completed entries (count: 2):
HES-GCSF 30/0.4: hG-CSF conjugated with AldehydoHES30/0.4 of example 6.1(f), prepared in example 6.2(d) (conjugate, UniProt P09919 31-207, looked up, hydroxyethyl starch conjugate HES30/0.4) Granulocyte …: TPLGPASSLPQSFLLKCLEQVRKIQGDGAALQEKLVSECATYKLCHPEELVLLGHSLGIPWAPLSSCPSQALQLAGCLSQLHSGLFLYQGLLQALEGISPELGPTLDTLQLDVADFATTIWQQMEELGMAPALQPTQGAMPAFASAFQRRAGGVLVASHLQSFLEVSYRVLRHLAQP :: 2.60
HES-GCSF 10/0.4: hG-CSF conjugated with AldehydoHES10/0.4 of example 6.1(b), prepared in example 6.2(b) (conjugate, UniProt P09919 31-207, looked up, hydroxyethyl starch conjugate HES10/0.4) Granulocyte …: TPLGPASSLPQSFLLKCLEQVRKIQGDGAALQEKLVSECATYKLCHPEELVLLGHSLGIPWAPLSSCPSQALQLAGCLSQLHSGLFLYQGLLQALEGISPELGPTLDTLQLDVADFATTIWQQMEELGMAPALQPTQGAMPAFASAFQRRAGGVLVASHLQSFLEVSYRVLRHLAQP :: 2.75

# evaluate next
Q: Supply reported Proliferation of mouse NFS-60 cells, induced by G-CSF variants belonging to this molecule: Mock-incubation: reaction control: hG-CSF incubated with 197 mg/ml non-functionalized HES50/0.7 (MW 47,000 D, DS 0.76) (protein, UniProt P09919 31-207, looked up, mixed with non-functionalized HES) Granulocyte …: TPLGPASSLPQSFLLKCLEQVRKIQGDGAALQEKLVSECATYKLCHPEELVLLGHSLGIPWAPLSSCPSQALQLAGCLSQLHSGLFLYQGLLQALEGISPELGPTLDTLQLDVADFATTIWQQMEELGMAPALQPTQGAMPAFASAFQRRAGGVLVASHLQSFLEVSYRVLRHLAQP
Ans: 2.41
